These records show IC50 for Acyl-CoA: Cholesterol Acyltransferase (ACAT) (Rattus norvegicus, UniProt Q7TQM4).
Only the number, expressed in nM, is required.

>>> df
                                   compound  quantity_kind  meas_value
0  CCCCCCCCNC(=O)N(CCCCCSc1nc(-c2ccccc2)c(-c2ccccc2)[nH]1)c1ccc(F)cc1F [Example 206]           IC50          40
1  CC(C)NC(=O)N(CCCCCSc1nc(-c2ccccc2)c(-c2ccccc2)[nH]1)c1ccccc1 [Example 261]           IC50          80
2  CCCCCCCN(CCCCCSc1nc(-c2ccccc2)c(-c2ccccc2)[nH]1)C(=O)c1ccc(F)cc1F [Example 345]           IC50          60
3  CCCCCCCN(CCCCCSc1nc(-c2ccccc2)c(-c2ccccc2)[nH]1)C(=O)c1ccccc1 [Example 346]           IC50          50
4  CCCCCCCN(CCCCCSc1nc(-c2ccccc2)c(-c2ccccc2)[nH]1)C(=O)Nc1ccc(-c2ccccc2)cc1 [Example 192]           IC50          70

Determine reported IC50 for CCCN(CCCCCSc1nc(-c2ccccc2)c(-c2ccccc2)[nH]1)C(=O)Nc1ccc(F)cc1F [Example 190] ; test system: Acyl-CoA: Cholesterol Acyltransferase (ACAT) (Rattus norvegicus, UniProt Q7TQM4).
Sequence (Q7TQM4 whole entry): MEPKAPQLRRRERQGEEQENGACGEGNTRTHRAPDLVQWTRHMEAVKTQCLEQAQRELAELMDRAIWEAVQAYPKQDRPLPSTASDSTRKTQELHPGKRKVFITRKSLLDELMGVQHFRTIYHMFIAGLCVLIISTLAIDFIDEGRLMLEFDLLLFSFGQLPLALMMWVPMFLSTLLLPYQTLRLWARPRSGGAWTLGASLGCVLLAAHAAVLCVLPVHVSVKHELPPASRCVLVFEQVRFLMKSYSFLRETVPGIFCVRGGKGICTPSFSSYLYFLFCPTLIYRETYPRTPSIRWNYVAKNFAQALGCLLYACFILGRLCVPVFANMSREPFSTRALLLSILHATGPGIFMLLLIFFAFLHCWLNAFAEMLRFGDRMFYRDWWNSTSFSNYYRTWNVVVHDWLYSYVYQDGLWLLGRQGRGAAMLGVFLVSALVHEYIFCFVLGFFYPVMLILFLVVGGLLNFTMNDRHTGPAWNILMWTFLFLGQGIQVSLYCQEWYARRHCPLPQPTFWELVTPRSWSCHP
30

Determine reported IC50 for CCCCCCCN(CCCCCCCCSc1nc(-c2ccccc2)c(-c2ccccc2)[nH]1)C(=O)Nc1ccc(F)cc1F [Example 3] ; test system: Acyl-CoA: Cholesterol Acyltransferase (ACAT) (Rattus norvegicus, UniProt Q7TQM4).
8
